Tested on: LOX IMVI
Assay: NCI tumour cell line growth inhibition, 48 h
Activity calls are given as the source filed them. Rule as the data show it: active = GI50 up to about 1.1 µM and inactive = higher.
EXPERIMENTAL_READOUT: GI50

>>> reported_value("N#C/C(C(=O)Nc1ccccc1)=C(/N)N1CCCCC1")
"> 100 µM (inactive)"
>>> reported_value("CCOP(=O)(C/C(=N/NC(C)(C)C)C(=O)Nc1nc2ccc(C)cc2s1)OCC")
"> 100 µM (inactive)"
>>> reported_value("C=CCNC(=O)N1CC(C)C(=O)Nc2ccccc21 (stereo not given)")
"> 100 µM (inactive)"
>>> reported_value("Cc1ccc(-c2cc(-c3ccc(Cl)cc3)nc(/N=C3\\C(=O)N(CN4CCCCC4)c4ccc(Cl)cc43)n2)cc1")
"23.3 µM (inactive)"
>>> reported_value("COc1ccc(-c2[nH]c3c4c(nc5c(c24)C(=O)CC(C)(C)C5)CC(C)(C)C3)cc1")
"68.7 µM (inactive)"
>>> reported_value("CC(C)Oc1c(C2(c3ccccc3O)SCCCS2)c(=O)c1=O")
"> 100 µM (inactive)"
>>> reported_value("C=C1C(=O)OC2C1C(OC(=O)/C(C)=C\\C)CC1(CO1)C1C(O)C=C(C)C21O (stereo not given)")
"14.4 µM (inactive)"
>>> reported_value("CCCCc1c(O)nc(Nc2nc3ccccc3[nH]2)[nH]c1=O")
"> 100 µM (inactive)"
>>> reported_value("CC1=C(C(=O)Nc2ccc([N+](=O)[O-])cc2)C(c2ccccc2F)C(C(=O)Nc2ccc([N+](=O)[O-])cc2)=C(C)N1")
"11 µM (inactive)"
>>> reported_value("Cc1sc(Nc2ccc(Nc3nc(-c4ccccc4)c(C)s3)cc2)nc1-c1ccccc1")
"40.6 µM (inactive)"

----------
Measured GI50 accompanies every entry in the list below.
System: TK-10
Test: NCI tumour cell line growth inhibition, 48 h
Calls of active or inactive are those of the source. Cut-off read from the data, not from the text of the source: active = GI50 up to about 1.1 µM and inactive = higher.
EXPERIMENTAL_READOUT: GI50

>>> reported_value("CC1CNC(NS(=O)(=O)c2cc(C(=O)Nc3ccc(F)cc3)c(Cl)cc2S)=NN1 (stereo unspecified)")
"> 100 µM (inactive)"
>>> reported_value("NS(=O)(=O)c1nnc(NS(=O)(=O)C(F)(F)F)s1")
"> 100 µM (inactive)"
>>> reported_value("O=[PH]1c2ccccc2Nc2ccccc21")
"> 100 µM (inactive)"
>>> reported_value("COc1cc2ccnc(-c3n[nH]c4cc(OC)c(OC)cc34)c2cc1OC")
"> 100 µM (inactive)"
>>> reported_value("CC1(C)CC(=O)C2=C(C1)N(c1ccccc1)C1(O)C=CC(O)=C3C(=O)c4ccccc4C(=O)C321 (stereo unspecified)")
"24.4 µM (inactive)"
>>> reported_value("C=CCCC1CCCNC1=S (stereo unspecified)")
"> 100 µM (inactive)"
>>> reported_value("Cc1ccccc1NC(=O)Cc1csc2[n+]1C(=O)/C(=C/c1ccc([N+](=O)[O-])cc1)S2")
"19.9 µM (inactive)"
>>> reported_value("COc1cc(OC)cc(-n2c(N)c(-c3nc4ccccc4n3C)c3ccc([N+](=O)[O-])cc3c2=O)c1")
"> 100 µM (inactive)"
>>> reported_value("Cc1cc(C)nc(SCCc2cccc[n+]2C)n1")
"> 100 µM (inactive)"
>>> reported_value("CCCCc1c(O)nc(Nc2nc3ccccc3[nH]2)[nH]c1=O")
"> 100 µM (inactive)"
>>> reported_value("CN(C(=O)Cc1ccccc1)n1cnn(CC(=O)OC(C)(C)C)c1=S")
"> 10 µM (inactive)"
>>> reported_value("CCCCN1C(=O)C[C@H]2[C@@H]3CCc4cc(OCCN5CCCC5)ccc4[C@H]3CC[C@]2(C)C1=O")
"14.6 µM (inactive)"
>>> reported_value("CC1=C(C(=O)Nc2ccccc2)C(c2ccc(Cl)c(Cl)c2)C(C(=O)Nc2ccccc2)=C(C)N1")
"33.9 µM (inactive)"
>>> reported_value("C=CCN1C2Cc3cc(OC)c(OC)cc3C1Cc1cc(OC)c(OC)cc12")
"> 100 µM (inactive)"
>>> reported_value("COc1ccc(CN2C(=O)C(Cc3cc(OC)c(OC)c(C)c3OC)N(C(=O)OC(C)C)C(=O)/C2=C/c2cc(OC)c(OC)c(C)c2OC)cc1 (stereo unspecified)")
"> 100 µM (inactive)"
>>> reported_value("Cc1ccc(C2(C)NC(=S)N(NC(N)=S)C2=S)cc1 (stereo unspecified)")
"> 100 µM (inactive)"
>>> reported_value("Cc1sc2nc(N(C)C)oc(=O)c2c1C")
"> 100 µM (inactive)"
>>> reported_value("O=C1OC(=O)c2c1c(-c1ccccc1)nc1ccccc21")
"> 100 µM (inactive)"
>>> reported_value("CC1(C)N=c2c(ncn2N)=C(C(N)=O)N1")
"> 100 µM (inactive)"
>>> reported_value("C=C=C(CC1CCCCC1=O)S(=O)(=O)c1ccccc1 (stereo unspecified)")
"> 10 µM (inactive)"
>>> reported_value("COc1ccc2c(c1)CCc1cc(OC)ccc1/[N+]([O-])=[N+]\\2[O-]")
"22.4 µM (inactive)"

Where do the numbers come from? From ChEMBL document CHEMBL1201862.
